What solubility thermodynamic was measured for each of the following?
- protocol.text: Lyophilisation solubility assay (Lysa)
- Type: physicochemical
- assay.conditions: phosphate buffer, pH 6.5, aqueous buffer, thermodynamic from solid

Please look up its solubility thermodynamic: CCOC(=O)C1=C(CN2CC(F)(F)C[C@H]2C(=O)O)NC(c2nccs2)=N[C@H]1c1cccc(F)c1Br
590 µg/mL

Please look up its solubility thermodynamic: COC(=O)C1=C(CN2CCOC[C@H]2C(=O)O)NC(c2ncoc2C)=N[C@H]1c1cccc(F)c1Cl
> 643 µg/mL

Please look up its solubility thermodynamic: CCOC(=O)C1=C(CN2CCOC[C@H]2C(=O)O)NC(c2nccs2)=N[C@H]1c1ccc(F)c(F)c1
> 613 µg/mL

Please look up its solubility thermodynamic: CCOC(=O)C1=C(CN2CC(F)(F)C[C@H]2C(=O)O)NC(c2nccs2)=N[C@H]1c1ccc(Cl)cc1Cl
291 µg/mL

Please look up its solubility thermodynamic: CCOC(=O)C1=C(CN2CC(F)(F)CC[C@@H]2C(=O)O)NC(c2nccs2)=N[C@H]1c1ccc(F)cc1Br
410 µg/mL

Please look up its solubility thermodynamic: CCOC(=O)C1=C(CN2CCO[C@H](C)[C@H]2C(=O)O)NC(c2nccs2)=N[C@H]1c1ccccc1Cl
> 628 µg/mL

Please look up its solubility thermodynamic: COC(=O)C1=C(CN2CSCCC2C(=O)O)NC(c2nccs2)=N[C@H]1c1ccc(F)cc1Cl (stereo partly drawn)
> 596 µg/mL

Please look up its solubility thermodynamic: COC(=O)C1=C(CN2CCO[C@H](C)[C@H]2C(=O)O)NC(c2nccs2)=N[C@H]1c1ccc(F)c(F)c1
> 615 µg/mL

Please look up its solubility thermodynamic: CCOC(=O)C1=C(CN2CC(F)(F)CC[C@H]2C(=O)O)NC(c2nccs2)=N[C@H]1c1ccccc1Cl
> 620 µg/mL

Please look up its solubility thermodynamic: COC(=O)C1=C(CN2CCO[C@H](C)[C@H]2C(=O)O)NC(c2nccs2)=N[C@H]1c1ccc(F)cc1Br
> 730 µg/mL

Please look up its solubility thermodynamic: CCOC(=O)C1=C(CN2CCOC[C@H]2C(=O)O)NC(c2nccs2)=N[C@H]1c1cc(F)cc(Cl)c1
> 636 µg/mL

Please look up its solubility thermodynamic: COC(=O)C1=C(CN2CC(F)(F)C[C@H]2C(=O)O)NC(c2nccs2)=N[C@H]1c1ccc(F)c(F)c1Cl
> 655 µg/mL

Please look up its solubility thermodynamic: CCOC(=O)C1=C(CN2CCOC[C@H]2C(=O)O)NC(c2nccs2)=N[C@H]1c1ccc(Cl)c(Cl)c1
> 655 µg/mL

Please look up its solubility thermodynamic: CCOC(=O)C1=C(CN2CCOC[C@H]2C(=O)O)NC(c2nccs2)=N[C@H]1c1cccc(F)c1Cl
> 679 µg/mL

Please look up its solubility thermodynamic: COC(=O)C1=C(CN2CC(F)(F)C[C@H]2C(=O)O)NC(c2ncccc2F)=N[C@H]1c1ccc(F)cc1Cl
630 µg/mL

---

- protocol.text: Metabolic stability study in human microsome
- Format: in vitro ADME
experimental.endpoint: Human Hepatic Clearance (mL/min/kg)
Give the value in mL/min/kg but do not write mL/min/kg after it.

Please look up its Human Hepatic Clearance: COC(=O)C1=C(CN2CCO[C@H](C)[C@H]2C(=O)O)NC(c2nccs2)=N[C@H]1c1ccc(F)c(F)c1
0

Please look up its Human Hepatic Clearance: COC(=O)C1=C(CN2CC(F)(F)C[C@H]2C(=O)O)NC(c2ncccc2F)=N[C@H]1c1ccc(F)cc1Cl
4.82

Please look up its Human Hepatic Clearance: CCOC(=O)C1=C(CN2CC(F)(F)CC[C@H]2C(=O)O)NC(c2nccs2)=N[C@H]1c1ccccc1Cl
5.31

Please look up its Human Hepatic Clearance: [2H]C1([2H])[C@@H](C(=O)O)N(CC2=C(C(=O)OC)[C@H](c3ccc(F)cc3Cl)N=C(c3nccs3)N2)CC1(F)F
3.65

Please look up its Human Hepatic Clearance: CCOC(=O)C1=C(CN2CCOC[C@H]2C(=O)O)NC(c2nccs2)=N[C@H]1c1cc(F)cc(Cl)c1
1.32

Please look up its Human Hepatic Clearance: CCOC(=O)C1=C(CN2CCOC[C@H]2C(=O)O)NC(c2nccs2)=N[C@H]1c1ccc(Cl)cc1
0

Please look up its Human Hepatic Clearance: CC(C)OC(=O)C1=C(CN2CCOC[C@H]2C(=O)O)NC(c2nccs2)=N[C@H]1c1cccc(F)c1Cl
4.18

Please look up its Human Hepatic Clearance: COC(=O)C1=C(CN2CCOC[C@H]2C(=O)O)NC(c2nccs2)=N[C@H]1c1ccc(Cl)cc1F
0

Please look up its Human Hepatic Clearance: COC(=O)C1=C(CN2CC(F)(F)C[C@H]2C(=O)O)NC(c2ccc(F)cc2F)=N[C@H]1c1ccc(F)cc1Cl
4.15

Please look up its Human Hepatic Clearance: O=C(OCC(F)(F)F)C1=C(CN2CCOC[C@H]2C(=O)O)NC(c2nccs2)=N[C@H]1c1ccc(F)cc1Cl
0

Please look up its Human Hepatic Clearance: COC(=O)C1=C(CN2CCOC[C@H]2C(=O)O)NC(c2nccs2)=N[C@H]1c1cc(F)c(F)cc1Cl
3.08

Please look up its Human Hepatic Clearance: CCOC(=O)C1=C(CN2CCOC[C@H]2C(=O)O)NC(c2nccs2)=N[C@H]1c1ccc(F)cc1Cl
4.68

Please look up its Human Hepatic Clearance: CCOC(=O)C1=C(CN2CCOC[C@H]2C(=O)O)NC(c2cccc(C)n2)=N[C@H]1c1ccc(F)cc1Cl
7

Please look up its Human Hepatic Clearance: CCOC(=O)C1=C(CN2CCOC[C@H]2C(=O)O)NC(c2nccs2)=N[C@H]1c1ccc(F)cc1F
1.26

---

- protocol.text: Metabolic stability study in human microsome
- Assay type: in vitro ADME
Lab note: cut-off is 6 mL/min/kg. Strictly less in Human Hepatic Clearance is condition met. Exactly 6 mL/min/kg or more is condition not met.

Given COC(=O)C1=C(CN2CC(F)(F)C[C@H]2C(=O)O)NC(c2nc(C)co2)=N[C@H]1c1ccc(F)cc1Cl , is recorded Human Hepatic Clearance strictly lower than 6 mL/min/kg?
condition met

Given CCOC(=O)C1=C(CN2CCOC[C@H]2C(=O)O)NC(c2nccs2)=N[C@H]1c1cccc(F)c1Br , is recorded Human Hepatic Clearance strictly lower than 6 mL/min/kg?
condition met

Given CC(C)(C)OC(=O)C1=C(CN2CCOC[C@H]2C(=O)O)NC(c2nccs2)=N[C@H]1c1ccc(F)cc1Cl , is recorded Human Hepatic Clearance strictly lower than 6 mL/min/kg?
condition not met

Given CCOC(=O)C1=C(CN2CCOC[C@H]2C(=O)O)NC(c2nccs2)=N[C@H]1c1ccc(Cl)cc1Cl , is recorded Human Hepatic Clearance strictly lower than 6 mL/min/kg?
condition not met

Given COC(=O)C1=C(CN2CCO[C@H](C)[C@H]2C(=O)O)NC(c2nccs2)=N[C@H]1c1cccc(F)c1Cl , is recorded Human Hepatic Clearance strictly lower than 6 mL/min/kg?
condition met

Given CCOC(=O)C1=C(CN2CC(F)(F)C[C@H]2C(=O)O)NC(c2nccs2)=N[C@H]1c1cccc(F)c1Br , is recorded Human Hepatic Clearance strictly lower than 6 mL/min/kg?
condition not met

Given COC(=O)C1=C(CN2CC(F)(F)C[C@H]2C(=O)O)NC(c2nccs2)=N[C@H]1c1ccc(Cl)cc1Cl , is recorded Human Hepatic Clearance strictly lower than 6 mL/min/kg?
condition not met

Given COC(=O)C1=C(CN2CCOC[C@H]2C(=O)O)NC(c2nc(C3CC3)cs2)=N[C@H]1c1ccc(F)cc1Cl , is recorded Human Hepatic Clearance strictly lower than 6 mL/min/kg?
condition not met

Given COC(=O)C1=C(CN2CC(F)(F)CC[C@H]2C(=O)O)NC(c2nccs2)=N[C@H]1c1cccc(F)c1Cl , is recorded Human Hepatic Clearance strictly lower than 6 mL/min/kg?
condition met

---

What solubility thermodynamic was measured for each of the following?
- protocol.text: Lyophilisation solubility assay (Lysa)
- Assay type: physicochemical
- assay.conditions: phosphate buffer, pH 6.5, aqueous buffer, thermodynamic from solid

Please look up its solubility thermodynamic: COC(=O)C1=C(CN2CC(F)(F)CCC2C(=O)O)NC(c2nccs2)=N[C@H]1c1ccc(F)cc1Cl (stereo partly shown)
398 µg/mL

Please look up its solubility thermodynamic: CCOC(=O)C1=C(CN2CCOC[C@H]2C(=O)O)NC(c2nccs2)=N[C@H]1c1ccc(Br)cc1
> 666 µg/mL

Please look up its solubility thermodynamic: CCOC(=O)C1=C(CN2CCOC[C@H]2C(=O)O)NC(c2nccn2C)=N[C@H]1c1ccc(F)cc1Cl
> 599 µg/mL

Please look up its solubility thermodynamic: COC(=O)C1=C(CN2CC(F)(F)C[C@H]2C(=O)O)NC(c2nccs2)=N[C@H]1c1ccc(F)cc1Cl
> 698 µg/mL

Please look up its solubility thermodynamic: COC(=O)C1=C(CN2CCOC[C@H]2C(=O)O)NC(c2nccs2)=N[C@H]1c1ccc(Br)c(F)c1F
> 695 µg/mL

Please look up its solubility thermodynamic: CCOC(=O)C1=C(CN2CC(F)(F)C[C@H]2C(=O)O)NC(c2nccs2)=N[C@H]1c1ccc(C#N)cc1
> 635 µg/mL

Please look up its solubility thermodynamic: COC(=O)C1=C(CN2CC(F)(F)C[C@H]2C(=O)O)NC(c2nccs2)=N[C@H]1c1ccccc1Br
> 670 µg/mL

Please look up its solubility thermodynamic: COC(=O)C1=C(CN2CC(F)(F)C[C@H]2C(=O)O)NC(c2nc(C)cs2)=N[C@H]1c1ccc(F)cc1Cl
> 622 µg/mL

Please look up its solubility thermodynamic: COC(=O)C1=C(CN2CCOC[C@H]2C(=O)O)NC(c2cc(C)ccn2)=N[C@H]1c1ccc(F)cc1Cl
> 645 µg/mL

Please look up its solubility thermodynamic: COC(=O)C1=C(CN2CCOC[C@H]2C(=O)O)NC(c2nccs2)=N[C@H]1c1cc(F)c(F)cc1Cl
828 µg/mL

Please look up its solubility thermodynamic: CCOC(=O)C1=C(CN2CC(F)(F)C[C@H]2C(=O)O)NC(c2nccs2)=NC1c1ccc(F)c(F)c1Cl (stereo in doubt)
> 670 µg/mL

Please look up its solubility thermodynamic: COC(=O)C1=C(CN2CC(F)(F)C[C@H]2C(=O)O)NC(c2nc(C3CC3)cs2)=N[C@H]1c1ccc(F)cc1Cl
246 µg/mL

Please look up its solubility thermodynamic: COC(=O)C1=C(CN2CCOC[C@H]2C(=O)O)NC(c2nccs2)=N[C@H]1c1ccc(F)c(F)c1Cl
> 656 µg/mL

Please look up its solubility thermodynamic: CCOC(=O)C1=C(CN2CCOC[C@H]2C(=O)O)NC(c2nccs2)=N[C@H]1c1ccccc1Br
> 672 µg/mL

Please look up its solubility thermodynamic: COC(=O)C1=C(CN2CC(F)(F)C[C@H]2C(=O)O)NC(c2ncoc2C)=N[C@H]1c1ccc(F)cc1Cl
> 635 µg/mL

Please look up its solubility thermodynamic: COC(=O)C1=C(CN2CC(F)(F)C[C@H]2C(=O)O)NC(c2ncc(F)cc2F)=N[C@H]1c1ccc(F)cc1Cl
> 700 µg/mL
